Data origin, for the record: patent US20180016324A1

- assay.target: T1, ZIKV (prM80E) with a C-terminal myc-myc-hexahistidine tag (Zika virus, UniProt A0A024B7W1 104-694)
- T1 construct: also called ZIKV (prM80E)-mmH; ZIKV-mmH
- method.summary: SPR, mAb captured, 37C, pH 5.5 chase
parameter.measured: log10 of t½ (log10 of the value in s)

# binder, log10 of t½
records = [
    ("H4H25617P (antibody, V domains shown) VH: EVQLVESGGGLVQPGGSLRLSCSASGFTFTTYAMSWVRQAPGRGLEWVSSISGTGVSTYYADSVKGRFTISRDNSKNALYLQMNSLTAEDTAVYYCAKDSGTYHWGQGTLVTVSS VL: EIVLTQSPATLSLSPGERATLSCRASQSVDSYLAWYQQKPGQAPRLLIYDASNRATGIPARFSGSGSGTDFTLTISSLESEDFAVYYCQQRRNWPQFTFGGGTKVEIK", 2.17),
    ("H4H25566P (antibody, V domains shown) VH: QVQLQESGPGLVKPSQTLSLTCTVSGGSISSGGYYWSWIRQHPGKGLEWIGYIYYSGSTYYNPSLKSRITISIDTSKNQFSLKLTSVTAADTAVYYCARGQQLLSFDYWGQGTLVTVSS VL: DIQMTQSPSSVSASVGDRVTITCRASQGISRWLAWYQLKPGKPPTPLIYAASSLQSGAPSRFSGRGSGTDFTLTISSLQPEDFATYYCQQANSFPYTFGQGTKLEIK", 0.26),
    ("H4H25637P (antibody, V domains shown) VH: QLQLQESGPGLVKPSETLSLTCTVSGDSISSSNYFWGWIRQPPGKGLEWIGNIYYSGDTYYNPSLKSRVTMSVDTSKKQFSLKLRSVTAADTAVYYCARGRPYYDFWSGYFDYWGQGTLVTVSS VL: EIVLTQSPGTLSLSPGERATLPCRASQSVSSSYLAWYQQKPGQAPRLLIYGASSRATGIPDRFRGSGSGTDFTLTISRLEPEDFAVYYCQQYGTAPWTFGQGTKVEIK", 2.22),
    ("H4H25710N (antibody, V domains shown) VH: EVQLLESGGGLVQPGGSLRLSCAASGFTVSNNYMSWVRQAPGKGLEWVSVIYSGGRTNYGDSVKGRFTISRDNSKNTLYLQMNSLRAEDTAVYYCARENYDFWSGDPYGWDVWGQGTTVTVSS VL: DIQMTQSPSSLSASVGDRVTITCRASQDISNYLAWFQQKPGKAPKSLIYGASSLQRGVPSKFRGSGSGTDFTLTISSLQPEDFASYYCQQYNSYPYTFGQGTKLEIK", 0.56),
    ("H4H25591P (antibody, V domains shown) VH: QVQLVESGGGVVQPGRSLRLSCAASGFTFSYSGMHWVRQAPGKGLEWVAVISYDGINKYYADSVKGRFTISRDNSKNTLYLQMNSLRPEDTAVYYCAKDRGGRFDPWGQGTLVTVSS VL: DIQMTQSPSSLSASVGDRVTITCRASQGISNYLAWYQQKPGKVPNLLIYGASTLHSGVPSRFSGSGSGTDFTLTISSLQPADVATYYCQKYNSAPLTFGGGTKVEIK", 1.58),
]
